Test: yeast display, Sf9 membrane polyspecificity reagent, FACS + sequencing; frameworks hold sequencing errors
assayEndpoint: polyreactivity (PSR sort gate)

Worked set:
[
  {
    "seqText": "QVQLVESGGGLVQAGGSLRLSCAASGRTLYRNAMGWYRQSPWKDREFVSRITWSGASTYYADSVKGRFTISRDNAKNTVYLQMNSLKPEDTAVYYCAAQYLSRRYGPYYTYNYWGQGTQVTVSS",
    "assayEndpoint": "polyreactivity (PSR sort gate)",
    "observedValue": "high polyreactivity"
  },
  {
    "seqText": "QVQLVESGGGLVQAGGSLRLSCAASGFIFVENAMGWYIQAPGKERELVASISRRGGSTYYADSVKGRFTISRDNAKNTVYLQMNSLKPEDTAVYYCAATLGRTRYNYWGQGTQVTVSS",
    "assayEndpoint": "polyreactivity (PSR sort gate)",
    "observedValue": "high polyreactivity"
  },
  {
    "seqText": "QDQLVESGGGLVQAGGSLRLSCAASGRIFKFNAMGWYRPAPGKERELVAAITSGGSTNYADSVKGRFTLSRDNEKNTVYLQMNSLKREDTAVYYCAKSTPRFYPRGFYYWGHGTQVTVSS",
    "assayEndpoint": "polyreactivity (PSR sort gate)",
    "observedValue": "low polyreactivity"
  },
  {
    "seqText": "QVQLVESGGGLVQAGGSLRLSCAASGSIFTYNAMGWYRQAPGKDRELVAAIRLSGGSTYYADSVKGRFTISRDNAKNTVYLQMTSLNPEDTAVYYCAAESAAASGVYSVEYDYWGQGTQVTVSS",
    "assayEndpoint": "polyreactivity (PSR sort gate)",
    "observedValue": "low polyreactivity"
  },
  {
    "seqText": "QVQLVESGGGLVQAGGSLRLSCAASGRTVPYAMGWYRQAPGKERELVATITYRVSTYYADSVKGRFTISRDNAKNTVYLQMNSLKPEDTEVYYCNTVTYPYVPALYDYWGQGTQVTVSS",
    "assayEndpoint": "polyreactivity (PSR sort gate)",
    "observedValue": "high polyreactivity"
  },
  {
    "seqText": "QVQLVESGGGLVQTGGSLRLSCAASGIIFYYYAMGWYRQAPGKERELVAAISWSGDGTYYADSVKGRFTISRDNAKNTVYLQMNSLKPEDTAVYYCAALNDGFTAYDYLDEYTDYGYWGQGTQVTVSS",
    "assayEndpoint": "polyreactivity (PSR sort gate)",
    "observedValue": "low polyreactivity"
  },
  {
    "seqText": "QVQLVESGGGLVQAGGSLRLSCGASGSTFPTYAMGWYRQAPGKERELVAVITSSGGRTYYADSVKGRFTISRDNAKNTVYLQMNSLKPEDTAVYYCAKGSGTIYNLYDYWGQGTQVTVSS",
    "assayEndpoint": "polyreactivity (PSR sort gate)",
    "observedValue": "high polyreactivity"
  },
  {
    "seqText": "QVQLVESGGGLFQAGGSLRLRWAASGNTFRYYVMGWYRQAPGKERELVADINWSGGRTYYADSVKWGFTISRDNAKNTVYFQMNSLKPEDTAVFYCNAARKLYRYSYDYWGQGTQVTLSS",
    "assayEndpoint": "polyreactivity (PSR sort gate)",
    "observedValue": "high polyreactivity"
  }
]

q: Give its polyreactivity (PSR sort gate) value. Item: QVQLVESGGGLVQAGGSLRLSCAASGSIFVSYGMGWYRPAPGKERELVAAISGGGVSTYYADSVKGRFTISRDNAKNTVYLQMNSLIPEDTAVYYCAAEVSFGWGNYGYDYWGQGTQVTVSS
a: high polyreactivity

q: Give its polyreactivity (PSR sort gate) value. Item: QVQLVESGGGLVQAGGSLRLSCAASGSTFYYNAMGWYRQAPGKERELFAAITFTGGSTYADSVKGRFTISRDNAKNTVYLQMNSLKPEDTAVFYCAATIQGHDYLGSGYDYWGQGTQVTVSS
a: low polyreactivity

q: Give its polyreactivity (PSR sort gate) value. Item: QVQLEESGGGLVQAGGSLRLSCAASGYTFYYYAMGWYRQAPGKERELVAAISRSGGSTYYADSVKGRFTISRDNAKNTVSLQMNSLKQEDTAVYYCAARRLVGAERPGYDYWGQGTQVTVSS
a: high polyreactivity
